experiment: serotonin-gated TRPC4 signal block – cell-based, second counter screen, HEK293 TRPC4/5HT1a, Fluo-4, counter-screen for TRPC4 inhibitor project, confirmation (AID 434978); conditions: Fluo-4 calcium flux, at 10 µM, serotonin added to trigger calcium flux;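 for Outcome: serotonin given first at submaximal then at maximal dose after compound preincubation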
The source made the active and inactive calls.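 Rule for the calls: active = primary screen active whose calcium signal fell more than 3 SD beyond the full-serotonin control mean in both duplicate plates; inactive = the rest.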
Outcome field: choose from active, inactive

Worked examples, 5 compounds total:
| compound | assigned.label |
| --- | --- |
| O=C(Nc1cccc(C(F)(F)F)c1)c1cccc(NS(=O)(=O)c2ccc(O)c(C(=O)O)c2)c1 | inactive |
| CCC1C=C(c2ccccc2)C=CN=C1N(CC)CC (stereo not drawn) | active |
| CCOc1ccc(CN2CCN(C(=O)c3ccccc3)CC2)cc1 | active |
| Cc1cc2nc3s/c(=C/c4ccc(-c5ccccc5C(=O)O)o4)c(=O)n3c2cc1C | inactive |
| CN(C)C(CNc1ccc(C(F)(F)F)cn1)c1ccccc1 (stereo not drawn) | inactive |

Task: Call for entry CC(C)n1c(SCC(=O)N2c3ccccc3Sc3ccccc32)nc2c1c(=O)n(C)c(=O)n2C :
Output: inactive

Task: Would you mind telling me which call this test gave C1CCN(c2nc(N3CCCCC3)nc(N3CCNCC3)n2)CC1 ?
Output: inactive

###

system: TRPC4 beta (transient receptor potential cation channel C4), mouse; experiment: potentiation of DAMGO EC20 TRPC4 response – cell-based, Fluo-4, HEK293 TRPC4beta/mu-opioid, confirmation (AID 2555); conditions: DAMGO EC20, Fluo-4 calcium flux, at 10 µM
The source made the active and inactive calls.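 How the source made its calls: active means primary screen hit whose calcium fluorescence ratio, in both repeats, exceeds the weak agonist control mean by 3 SD; inactive means the rest.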
Just give me one of these, please: active, inactive

| compound | assigned.label |
| --- | --- |
| COc1ccc2c(c1)C=C(CN1CCC(CO)(CCc3ccccc3)CC1)CO2 | inactive |
| CCCCNCC1C(Oc2ccc(Cl)cc2)C(=O)N1c1ccccc1C (stereo not drawn) | inactive |
| Cc1cc(Oc2ccc(C(C)(C)C)cc2)nc(N2CCOCC2)n1 | active |
| CCOc1ccc2ccccc2c1CNCCc1ccc(S(N)(=O)=O)cc1 | inactive |
| CN1CCN(c2ccc(NC(=O)c3ccc(-c4ccc(Cl)cc4)o3)cc2)CC1 | inactive |

Task: Per the records of this test, what outcome belongs to COc1ccc(-c2n[nH]c(C)c2-c2ccccc2OC)c(O)c1 ?
Output: inactive

Task: Could you check what this test reported for Oc1ccc(Nc2nc(N3CCCC3)c3ccccc3n2)cc1 ?
Output: inactive

Task: How was Cc1ccc(/C=C2\SC(=S)N(C(Cc3ccccc3)C(=O)O)C2=O)cc1 (stereo not drawn) classified in this test?
Output: inactive

Task: Field: outcome | Entry: CC(C)C1CC(CCNCc2ccc3c(c2)OCO3)(c2ccccc2)CCO1 (stereo not drawn)
Output: inactive

Task: Check the results log: what was the call for CC(C)c1nc(N2CCOCC2)c(C#N)c2c1CCCC2 ?
Output: inactive

Task: Test call, this compound: CC(=O)Nc1ccc(S(=O)(=O)Nc2nc3ccc(C)cc3s2)cc1
Output: inactive

Task: I'd appreciate the recorded outcome for OCC1(CC2CCCCO2)CCN(Cc2ccccc2-c2ccco2)CC1 (stereo not drawn) from this test.
Output: inactive

Task: Short answer needed: outcome of this test for COc1ccc(C(CNC(=O)CSc2ccccc2C)N(C)C)cc1 (stereo not drawn) ?
Output: inactive

Task: GET /call?item= O=C(NCCNC1CCC(c2ccccc2)CC1)c1cccs1 (stereo not drawn) returns the recorded outcome of this test.
Output: inactive

Task: Fill in: this test's call for Cc1ccc(-n2cccn2)c(CN2CCCC(C(=O)c3ccc4c(c3)OCO4)C2)c1 (stereo not drawn) is ___
Output: inactive

Reference for the values: PubChem BioAssay
